Test system: R5 (BaL) HIV-1
assay_method_text: Single-round
Format: cell-based
test_conditions: Human immunodeficiency virus 1, BAL, MAGI, read-out: Cell-Free Virus R5 EC50
experimental_readout: EC50 (nM)
Lab book: enter the figure in nM, no units written.

>>> measured_result("Nc1ccn([C@@H]2CS[C@H](CO)O2)c(=O)n1 [3TC (2), (−)-2′,3′-Dideoxy-3′-thiacytidine]")
2600

Read the next record carefully.
Request: GET /values?readout=EC50&item= Cc1cn([C@H]2C[C@H](F)[C@@H](CO)O2)c(=O)[nH]c1=O
Result: 100
